Molecular target: UniProt:P48736
Assay: PI3K-gamma fluorescence polarization assay
Details: read-out: IC50 PI3Kγ

{"columns": ["compound", "IC50, nM"],
 "data": [
  ["C[C@H](CO)Nc1nc(-c2ccc(NC(=O)Nc3cccnc3)cc2)nc(N2CC3CCC(C2)O3)n1", 4730],
  ["CC(C)N1CCN(C(=O)c2ccc(NC(=O)Nc3ccc(-c4nc(N5CCOC[C@H]5C)nc(N5CCOC[C@H]5C)n4)cc3)cc2)CC1", 702],
  ["O=C(Nc1ccncc1)Nc1ccc(-c2nc(N3CCCC3)nc(N3CCOCC3)n2)cc1", 162],
  ["CN1CCN(c2ccc(NC(=O)Nc3ccc(-c4nc(N5CC[S+]([O-])CC5)nc(N5C6CCC5COC6)n4)cc3)cc2)CC1", 8480],
  ["CN1CCN(c2ccc(NC(=O)Nc3ccc(-c4nc(N5CCSCC5)nc(N5C6CCC5COC6)n4)cc3)cc2)CC1", 3230],
  ["C[C@@H]1COCCN1c1nc(-c2ccc(NC(=O)Nc3ccc(N4CCC(N(C)C)CC4)cc3)cc2)nc(C2CCOCC2)n1", 484],
  ["CC(C)N1CCCN(c2nc(-c3ccc(NC(=O)Nc4ccc(C(=O)N5CCN(C)CC5)cc4)cc3)nc(N3CCOCC3)n2)CC1", 128],
  ["CCS(=O)(=O)N1CCN(c2nc(-c3ccc(NC(=O)Nc4ccc(C(=O)NCCN(C)C)cc4)cc3)nc(N3CCOCC3)n2)CC1", 70],
  ["Cc1ccc(-c2nc(-c3ccc(NC(=O)Nc4ccc(C(=O)N5CCN(C)CC5)cc4)cc3)nc(N3CCOCC3)n2)cc1", 98],
  ["CN(C)CCN(C)C(=O)c1ccc(NC(=O)Nc2ccc(-c3nc(-c4cccs4)nc(N4CCOCC4)n3)cc2)cc1", 10.5],
  ["COC(=O)c1ccc(NC(=O)Nc2ccc(-c3nc(N4CCCC4)nc(N4CCOCC4)n3)cc2)cc1", 744],
  ["CN(C)C1CCN(C(=O)c2ccc(NC(=O)Nc3ccc(-c4nc(N5CCOCC5)nc(N5CC6CCC5CO6)n4)cc3)cc2)CC1 (centres unmarked)", 30.5],
  ["CN(C)CCN(C)C(=O)c1ccc(NC(=O)Nc2ccc(-c3nc(N4CCCC4)nc(N4CCOCC4)n3)cc2)cc1", 55.5],
  ["CN1CCN(C(=O)c2ccc(NC(=O)Nc3ccc(-c4nc(N5CCOCC5)nc(N5CC6CCC5CO6)n4)cc3)cc2)CC1 (centres unmarked)", 30]
]}

###

Listed below: IC50 values for each entry.
Target: PI3K-γ (Homo sapiens)
Sequence (P48736 whole entry, species assumed): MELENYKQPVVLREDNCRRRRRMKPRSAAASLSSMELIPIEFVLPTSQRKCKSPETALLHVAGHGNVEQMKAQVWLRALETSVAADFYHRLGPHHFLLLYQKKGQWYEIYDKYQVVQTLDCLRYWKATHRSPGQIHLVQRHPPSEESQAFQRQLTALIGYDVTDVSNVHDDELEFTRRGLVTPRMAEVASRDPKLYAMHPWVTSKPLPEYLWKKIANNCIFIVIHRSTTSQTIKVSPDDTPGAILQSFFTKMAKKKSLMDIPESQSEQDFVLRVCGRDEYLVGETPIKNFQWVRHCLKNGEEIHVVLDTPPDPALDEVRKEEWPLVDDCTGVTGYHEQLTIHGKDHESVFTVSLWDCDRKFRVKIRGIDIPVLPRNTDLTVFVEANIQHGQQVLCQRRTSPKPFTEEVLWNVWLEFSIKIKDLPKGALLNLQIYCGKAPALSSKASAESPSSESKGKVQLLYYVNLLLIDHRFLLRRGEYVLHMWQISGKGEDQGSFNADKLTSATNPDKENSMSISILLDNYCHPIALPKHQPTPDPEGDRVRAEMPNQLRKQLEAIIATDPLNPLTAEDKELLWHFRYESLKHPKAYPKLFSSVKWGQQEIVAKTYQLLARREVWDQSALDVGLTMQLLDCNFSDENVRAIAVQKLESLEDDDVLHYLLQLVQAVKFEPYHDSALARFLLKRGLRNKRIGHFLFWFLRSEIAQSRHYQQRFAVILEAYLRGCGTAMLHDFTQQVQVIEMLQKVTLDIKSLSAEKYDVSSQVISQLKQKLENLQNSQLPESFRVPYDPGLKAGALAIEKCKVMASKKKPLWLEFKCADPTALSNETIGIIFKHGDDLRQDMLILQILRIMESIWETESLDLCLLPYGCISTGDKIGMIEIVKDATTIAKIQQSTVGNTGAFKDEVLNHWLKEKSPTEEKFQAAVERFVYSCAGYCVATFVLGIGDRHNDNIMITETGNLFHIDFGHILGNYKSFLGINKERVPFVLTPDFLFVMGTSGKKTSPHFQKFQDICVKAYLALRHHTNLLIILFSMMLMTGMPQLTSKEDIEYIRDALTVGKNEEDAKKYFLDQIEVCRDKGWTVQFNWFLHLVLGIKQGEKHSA
Assay: PI3K-gamma fluorescence polarization assay
Details: read-out: IC50 PI3Kγ

{"columns": ["molecularString", "IC50, nM"],
 "data": [
  ["CN(C)C1CCN(c2ccc(NC(=O)Nc3ccc(-c4nc(C5CCOCC5)nc(N5C6CCC5COC6)n4)cc3)cc2)CC1", 1610],
  ["O=C(Nc1ccc(C(=O)NCCc2ccccn2)cc1)Nc1ccc(-c2nc(N3CCOCC3)nc(N3C4COCC3COC4)n2)cc1", 126],
  ["CN1CCN(C(=O)Nc2ccc(NC(=O)Nc3ccc(-c4nc(N5CCOCC5)nc(N5CCOCC5)n4)cc3)cc2)CC1", 2.5],
  ["CC(C)Nc1nc(-c2ccc(NC(=O)Nc3cccnc3)cc2)nc(N2CC3CCC(C2)O3)n1", 3130],
  ["C[C@@H]1COCCN1c1nc(-c2ccc(NC(=O)Nc3ccc(N4CCN(C)CC4)cc3)cc2)nc(N2C[C@@H]3C[C@H]2CO3)n1", 7480],
  ["OCc1cccc(-c2nc(N3CCOCC3)nc(N3C4CCC3COC4)n2)c1", 1280],
  ["COC(=O)c1ccc(NC(=O)Nc2ccc(-c3nc(-c4ccccc4)nc(N4CCOCC4)n3)cc2)cc1", 197],
  ["C[C@H]1COCCN1c1nc(-c2ccc(NC(=O)Nc3ccc(C(=O)N4CC[C@@H](N(C)C)C4)cc3)cc2)nc(N2C3CCC2COC3)n1", 81.5],
  ["CN(C)CCN(C)C(=O)c1ccc(NC(=O)Nc2ccc(-c3nc(C4CCOCC4)nc(N4C5CCC4COC5)n3)cc2)cc1", 483],
  ["CCc1nc(-c2ccc(NC(=O)Nc3ccc(C(=O)N(C)CCN(C)C)cc3)cc2)nc(N2CCOCC2)n1", 24],
  ["O=C(Nc1ccc(C(=O)O)cc1)Nc1ccc(-c2nc(N3CCOCC3)nc(N3CCOCC3)n2)cc1", 48],
  ["CN(C)CC(=O)N1CCN(c2nc(-c3ccc(NC(=O)Nc4ccncc4)cc3)nc(N3CC4CCC(C3)O4)n2)CC1", 777],
  ["O=C(Nc1ccncc1)Nc1ccc(-c2nc(NS(=O)(=O)c3ccccc3)nc(N3CCOCC3)n2)cc1", 374],
  ["O=C(Nc1ccc(C(=O)N2CCC(N3CCCC3)CC2)cc1)Nc1ccc(-c2nc(N3CCOCC3)nc(N3C4CCC3COC4)n2)cc1", 19]
]}

###

Molecular target: PI3K-γ (Homo sapiens)
Assay: PI3K-gamma fluorescence polarization assay
Settings: read-out: IC50 PI3Kγ
pIC50: −log10 of the molar value.

{"columns": ["compound", "pIC50"],
 "data": [
  ["CN(C)CCNC(=O)c1ccc(NC(=O)Nc2ccc(-c3nc(-c4cccs4)nc(N4CCOCC4)n3)cc2)cc1", 7.47],
  ["O=C(Nc1ccc(C(=O)N2CCNCC2)cc1)Nc1ccc(-c2nc(N3CCOCC3)nc(N3CC4CCC3CO4)n2)cc1 (stereo not shown)", 8.00],
  ["CCc1nc(-c2ccc(NC(=O)Nc3ccc(C(=O)O)cc3)cc2)nc(N2CCOCC2)n1", 6.92],
  ["CC(C)N(C)c1nc(-c2ccc(NC(=O)Nc3ccc(N4CCN(C)CC4)cc3)cc2)nc(N2C3CCC2COC3)n1", 5.25],
  ["NC(=O)CNC1CCN(c2nc(-c3ccc(NC(=O)Nc4ccncc4)cc3)nc(N3CC4CCC(C3)O4)n2)CC1", 5.26],
  ["COC(=O)c1ccc(NC(=O)Nc2ccc(-c3nc(-c4cccs4)nc(N4CCOCC4)n3)cc2)cc1", 6.30],
  ["CCc1nc(-c2ccc(NC(=O)Nc3ccc(C(=O)N4CCN(C)CC4)cc3)cc2)nc(N2CCOCC2)n1", 7.82],
  ["CN1CCN(C(=O)c2ccc(NC(=O)Nc3ccc(-c4nc(N5CCOCC5)nc(N5CCN(C(=O)N(C)C)CC5)n4)cc3)cc2)CC1", 7.37],
  ["C[C@@H]1COCCN1c1nc(-c2ccc(NC(=O)Nc3ccc(C(=O)N4CCN(C)CC4)cc3)cc2)nc(C2CCOCC2)n1", 6.47],
  ["O=C(Nc1ccc(C(=O)O)cc1)Nc1ccc(-c2nc(-c3cccs3)nc(N3CCOCC3)n2)cc1", 7.39],
  ["CN(C)C1CCN(c2ccc(NC(=O)Nc3ccc(-c4nc(-c5ccccc5)nc(N5CCOCC5)n4)cc3)cc2)CC1", 6.95],
  ["CC(C)(C)OC(=O)N1CC(Nc2nc(-c3ccc(NC(=O)Nc4cccnc4)cc3)nc(N3CCOCC3)n2)C1", 6.75],
  ["CC(C)N1CCN(C(=O)c2ccc(NC(=O)Nc3ccc(-c4nc(N5C6CCC5COC6)nc(N5CCOC[C@H]5C)n4)cc3)cc2)CC1", 6.00],
  ["Cc1ccc(-c2nc(-c3ccc(NC(=O)Nc4ccc(N5CCN(C)CC5)cc4)cc3)nc(N3CCOCC3)n2)cc1", 5.17],
  ["CC(C)N1CCN(c2ccc(NC(=O)Nc3ccc(-c4nc(C5CCOCC5)nc(N5C6CCC5COC6)n4)cc3)cc2)CC1", 5.34],
  ["CN1CCN(C(=O)c2ccc(NC(=O)Nc3ccc(-c4nc(N5CCOCC5)nc(N5C6COCC5COC6)n4)cc3)cc2)CC1", 7.76],
  ["CN1CCN(c2ccc(NC(=O)Nc3ccc(-c4nc(N5CC6CCC(C5)O6)nc(N5[C@H](CO)CC[C@@H]5CO)n4)cc3)cc2)CC1", 6.20],
  ["COC(=O)c1cccc(NC(=O)Nc2ccc(-c3nc(-c4ccccc4)nc(N4CCOCC4)n3)cc2)c1", 5.90],
  ["CN(C)C1CCN(C(=O)c2ccc(NC(=O)Nc3ccc(-c4nc(N5CCOCC5)nc(N5C6COCC5COC6)n4)cc3)cc2)CC1", 7.77],
  ["Cc1ccc(-c2nc(-c3ccc(NC(=O)Nc4ccc(C(=O)O)cc4)cc3)nc(N3CCOCC3)n2)cc1", 6.90],
  ["CC(C)N1CCN(C(=O)c2ccc(NC(=O)Nc3ccc(-c4nc(N5CCOCC5)nc(N5CCCN(C(C)C)CC5)n4)cc3)cc2)CC1", 6.53],
  ["CN(C)C1CCN(C(=O)c2ccc(NC(=O)Nc3ccc(-c4nc(C5=CCOCC5)nc(N5CCOCC5)n4)cc3)cc2)CC1", 7.96],
  ["O=C(CN1CCCC1)Nc1ccc(NC(=O)Nc2ccc(-c3nc(N4C5CCC4COC5)nc(N4C5CCC4COC5)n3)cc2)cc1", 5.59],
  ["COc1ccc(NC(=O)Nc2ccc(-c3nc(N4CCOCC4)nc(N4CCOCC4)n3)cc2)cc1", 7.19],
  ["C[C@H]1COCCN1c1nc(-c2ccc(NC(=O)Nc3ccc(C(=O)N4CCN(C)CC4)cc3)cc2)nc(N2CCOCC2)n1", 7.57],
  ["CC(C)Oc1nc(-c2ccc(NC(=O)Nc3ccncc3)cc2)nc(N2CC3CCC(C2)O3)n1", 5.89],
  ["Cc1ccc(-c2nc(-c3ccc(NC(=O)Nc4ccc(C(=O)NCCCN(C)C)cc4)cc3)nc(N3CCOCC3)n2)cc1", 6.81],
  ["CN1CCN(C(=O)c2ccc(NC(=O)Nc3ccc(-c4nc(C5CCOCC5)nc(N5C6CCC5COC6)n4)cc3)cc2)CC1", 6.18]
]}
